Ref: patent US4061760A

- System: ventricular rate and rhythm
- assay-protocol: animal or person
- Assay type: in vivo
- test-settings: Mus musculus, ip, 10 min, read-out: ED50 (95% CL)
measured-quantity: ED50 (mg/kg)
Answers are plain numbers, in mg/kg.

O=C1NC(c2ccccc2)(c2ccccn2)C(=O)N1CCCN1CCC(c2ccccc2)CC1 (stereo not shown): 15.3
O=C1NC(=O)C(c2ccccc2)(c2ccccn2)N1 (stereo not shown): 160
O=C1NC(=O)C(c2ccccc2)(c2ccncc2)N1 (stereo not shown): 205
O=C1NC(c2ccccc2)(c2ccncc2)C(=O)N1CCCN1CCC(c2ccccc2)CC1 (stereo not shown): 28

Please give ED50 for each item listed below.
1. O=C1NC(c2ccccc2)(c2ccccn2)C(=O)N1CCCN1CCC(O)(c2ccccc2)CC1 (stereo not shown)
2. O=C1NC(c2ccccc2)(c2cccnc2)C(=O)N1CCCN1CCC(c2ccccc2)CC1 (stereo not shown)

19.2
31
